molecular target: human GLP-1 receptor (human, UniProt P43220)
Sequence (P43220 24-463): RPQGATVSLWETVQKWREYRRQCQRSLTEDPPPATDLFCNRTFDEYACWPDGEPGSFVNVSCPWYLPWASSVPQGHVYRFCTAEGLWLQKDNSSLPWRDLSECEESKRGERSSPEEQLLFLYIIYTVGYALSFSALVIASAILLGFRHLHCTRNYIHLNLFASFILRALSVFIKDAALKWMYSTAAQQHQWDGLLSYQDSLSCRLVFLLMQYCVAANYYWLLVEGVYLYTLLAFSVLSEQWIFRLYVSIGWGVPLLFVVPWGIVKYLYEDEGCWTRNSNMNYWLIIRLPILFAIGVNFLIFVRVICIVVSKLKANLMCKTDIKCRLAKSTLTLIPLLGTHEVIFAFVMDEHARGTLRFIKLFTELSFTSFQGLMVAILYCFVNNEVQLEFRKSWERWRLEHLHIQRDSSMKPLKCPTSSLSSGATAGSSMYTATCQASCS
*1 amine or outer side, *2 acyl side, *3 side chain or, on linkers, in order; H or OH if unused. Where no end group is shown, it is not given here. Side-chain parts run from the residue outwards. [ ]: non-standard residue; d: D form. The star is where a group is joined. Undecanoyl(11-OPh(4-COOH)) = O=C(O)c1ccc(OCCCCCCCCCCC(=O)*)cc1; Decanoyl(10-O(3-COOH-Ph)) = O=C(O)c1cccc(OCCCCCCCCCC(=O)*)c1; γGlu = O=C(O)[C@H](CCC(=O)[*:2])N[*:1]; C14 diacid = O=C(O)CCCCCCCCCCCCC(=O)*; AEEA = NCCOCCOCC(=O)O; Aib = CC(C)(N)C(=O)O
valueType: log10 of EC50/pM (0% HSA) (log10 of the value in pM)
Recorded EC50/pM (0% HSA) (log10, pM)

*Q* Given the binder H[Aib]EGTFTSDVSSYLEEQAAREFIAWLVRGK([AEEA-AEEA-γGlu-γGlu-Undecanoyl(11-OPh(4-COOH))])K([AEEA-AEEA-γGlu-γGlu-Undecanoyl(11-OPh(4-COOH))]) [GLP-1 derivative of Example 18] , write its reported log10 of EC50/pM (0% HSA).
*A* -0.10

*Q* Given the binder H[Aib]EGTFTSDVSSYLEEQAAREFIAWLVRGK([AEEA-AEEA-AEEA-γGlu-C14 diacid])K([AEEA-AEEA-AEEA-γGlu-C14 diacid]) [GLP-1 derivative of Example 12] , write its reported log10 of EC50/pM (0% HSA).
*A* 0.08

*Q* Given the binder H[Aib]EGTFTSDVSSYLEEQAAREFIAWLVRGKK (not fully specified (residues 30, 31)) [GLP-1 derivative of Example 1] , write its reported log10 of EC50/pM (0% HSA).
*A* 0.08

*Q* Given the binder HGEGTFTSDVSSYLEEQAAREFIAWLVRGK([AEEA-AEEA-γGlu-Undecanoyl(11-OPh(4-COOH))])K([AEEA-AEEA-γGlu-Undecanoyl(11-OPh(4-COOH))]) [GLP-1 derivative of Example 17] , write its reported log10 of EC50/pM (0% HSA).
*A* 1.15

*Q* Given the binder H[Aib]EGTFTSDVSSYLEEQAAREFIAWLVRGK([AEEA-AEEA-γGlu-Decanoyl(10-O(3-COOH-Ph))])K([AEEA-AEEA-γGlu-Decanoyl(10-O(3-COOH-Ph))]) [GLP-1 derivative of Example 15] , write its reported log10 of EC50/pM (0% HSA).
*A* 0.79

*Q* Given the binder H[Aib]EGTFTSDVSSYLEEQAAREFIAWLVQGK([AEEA-AEEA-γGlu-Undecanoyl(11-OPh(4-COOH))])K([AEEA-AEEA-γGlu-Undecanoyl(11-OPh(4-COOH))]) [GLP-1 derivative of Example 7] , write its reported log10 of EC50/pM (0% HSA).
*A* 0.18

*Q* Given the binder H[Aib]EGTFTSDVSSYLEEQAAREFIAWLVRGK([AEEA-AEEA-γGlu-γGlu-C14 diacid])K([AEEA-AEEA-γGlu-γGlu-C14 diacid]) [GLP-1 derivative of Example 21] , write its reported log10 of EC50/pM (0% HSA).
*A* 0.75

*Q* Given the binder H[Aib]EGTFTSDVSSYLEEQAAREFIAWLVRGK([AEEA-AEEA-γGlu-C14 diacid])K([AEEA-AEEA-γGlu-C14 diacid]) [GLP-1 derivative of Example 5] , write its reported log10 of EC50/pM (0% HSA).
*A* 0.04
